Attribution: the NIST ThermoML archive (doi:10.1016/j.jct.2012.03.005)

- experimentSummary: activity coefficient (dimensionless); of the first substance listed, at infinite dilution; xn = mol fraction of the nth substance listed
- assayConditions: 318.15 K; 101 kPa; Liquid; Chromatography; x1 = 0
measuredProperty: activity coefficient

See these solved cases before continuing.
C#CCCCCCC [1-octyne] + CCn1cc[n+](C)c1.CS(=O)(=O)[O-]
26.2
CCc1ccccc1 [ethylbenzene] + CCn1cc[n+](C)c1.CS(=O)(=O)[O-]
17.5
Cc1ccccc1 [toluene] + CCn1cc[n+](C)c1.CS(=O)(=O)[O-]
9.03
Cc1ccccc1C [1,2-dimethylbenzene] + CCn1cc[n+](C)c1.CS(=O)(=O)[O-]
14.6
C=Cc1ccccc1 [styrene] + CCn1cc[n+](C)c1.CS(=O)(=O)[O-]
5.71
C1CCOC1 [tetrahydrofuran] + CCn1cc[n+](C)c1.CS(=O)(=O)[O-]
5.3
C=CCCCCC [1-heptene] + CCn1cc[n+](C)c1.CS(=O)(=O)[O-]
134
CCO [ethanol] + CCn1cc[n+](C)c1.CS(=O)(=O)[O-]
0.483

[P] CCCCCCCCCC [decane] + CCn1cc[n+](C)c1.CS(=O)(=O)[O-]
[Q] O [water] + CCn1cc[n+](C)c1.CS(=O)(=O)[O-]
*Q* Response body: label of entry with the larger activity coefficient; valid values P , Q . Indicate your choice by writing its label.
*A* P
(P: 1180, Q: 0.071)

----------
- experimentSummary: activity coefficient (dimensionless); of the first substance listed, at infinite dilution; xn = mol fraction of the nth substance listed
- assayConditions: 308.15 K; 101 kPa; Liquid; Chromatography; x1 = 0
measuredProperty: activity coefficient

See these solved cases before continuing.
C#CCCCCCC [1-octyne] + CCn1cc[n+](C)c1.CS(=O)(=O)[O-]
26.2
C#CCCCCC [1-heptyne] + CCn1cc[n+](C)c1.CS(=O)(=O)[O-]
14.4

[a] C1COCCO1 [1,4-dioxane] + CCn1cc[n+](C)c1.CS(=O)(=O)[O-]
[b] CCCCCCCCCC [decane] + CCn1cc[n+](C)c1.CS(=O)(=O)[O-]
*Q* Response body: label of entry with the larger activity coefficient; valid values a , b . Indicate your choice by writing its label.
*A* b

----------
- experimentSummary: activity coefficient (dimensionless); of the first substance listed, at infinite dilution; xn = mol fraction of the nth substance listed
- assayConditions: 338.15 K; 101 kPa; Liquid; Chromatography; x1 = 0
measuredProperty: activity coefficient

See these solved cases before continuing.
Cc1ccccc1C [1,2-dimethylbenzene] + CCn1cc[n+](C)c1.CS(=O)(=O)[O-]
14
Cc1ccccc1 [toluene] + CCn1cc[n+](C)c1.CS(=O)(=O)[O-]
8.77
CCO [ethanol] + CCn1cc[n+](C)c1.CS(=O)(=O)[O-]
0.474
CCOC(C)(C)C [2-ethoxy-2-methylpropane] + CCn1cc[n+](C)c1.CS(=O)(=O)[O-]
53.5
CCCCCCCCC [nonane] + CCn1cc[n+](C)c1.CS(=O)(=O)[O-]
607

[I] CCCO [propan-1-ol] + CCn1cc[n+](C)c1.CS(=O)(=O)[O-]
[II] CCCCCCCC [octane] + CCn1cc[n+](C)c1.CS(=O)(=O)[O-]
*Q* Response body: label of entry with the larger activity coefficient; valid values I , II . Indicate your choice by writing its label.
*A* II
(II: 388, I: 0.724)

[1] CC#N [acetonitrile] + CCn1cc[n+](C)c1.CS(=O)(=O)[O-]
[2] C1CCCC1 [cyclopentane] + CCn1cc[n+](C)c1.CS(=O)(=O)[O-]
*Q* Response body: label of entry with the larger activity coefficient; valid values 1 , 2 . Indicate your choice by writing its label.
*A* 2

----------
- experimentSummary: activity coefficient (dimensionless); of the first substance listed, at infinite dilution; xn = mol fraction of the nth substance listed
- assayConditions: 328.15 K; 101 kPa; Liquid; Chromatography; x1 = 0
measuredProperty: activity coefficient

See these solved cases before continuing.
C#CCCCC [1-hexyne] + CCn1cc[n+](C)c1.CS(=O)(=O)[O-]
8.06
Cc1ccccc1 [toluene] + CCn1cc[n+](C)c1.CS(=O)(=O)[O-]
8.88
c1ccsc1 [thiophene] + CCn1cc[n+](C)c1.CS(=O)(=O)[O-]
1.96

[A] COC(C)(C)C [2-methoxy-2-methylpropane] + CCn1cc[n+](C)c1.CS(=O)(=O)[O-]
[B] C1CCCCCCC1 [cyclooctane] + CCn1cc[n+](C)c1.CS(=O)(=O)[O-]
[C] C=CCCCC [hex-1-ene] + CCn1cc[n+](C)c1.CS(=O)(=O)[O-]
*Q* Please list these compounds in decreasing order of activity coefficient. Please respond with the labels ordered as the question requires.
*A* B, C, A

----------
- experimentSummary: activity coefficient (dimensionless); of the first substance listed, at infinite dilution; xn = mol fraction of the nth substance listed
- assayConditions: 308.15 K; 101 kPa; Liquid; Chromatography; x1 = 0
measuredProperty: activity coefficient

Cc1ccc(C)cc1 [1,4-dimethylbenzene] + CCn1cc[n+](C)c1.CS(=O)(=O)[O-]
18.6

[I] CCCCCCC [heptane] + CCn1cc[n+](C)c1.CS(=O)(=O)[O-]
[II] C1CCCC1 [cyclopentane] + CCn1cc[n+](C)c1.CS(=O)(=O)[O-]
[III] C#CCCCC [1-hexyne] + CCn1cc[n+](C)c1.CS(=O)(=O)[O-]
*Q* Please list these compounds in decreasing order of activity coefficient. Please respond with the labels ordered as the question requires.
*A* I, II, III
(I: 378, II: 46.2, III: 7.87)

----------
- experimentSummary: activity coefficient (dimensionless); of the first substance listed, at infinite dilution; xn = mol fraction of the nth substance listed
- assayConditions: 318.15 K; 101 kPa; Liquid; Chromatography; x1 = 0
measuredProperty: activity coefficient

See these solved cases before continuing.
CCCC(C)=O [pentan-2-one] + CCn1cc[n+](C)c1.CS(=O)(=O)[O-]
7.66
CCC[N+](=O)[O-] [1-nitropropane] + CCn1cc[n+](C)c1.CS(=O)(=O)[O-]
2.37

[I] C=C(C)c1ccccc1 [(1-methylethenyl)benzene] + CCn1cc[n+](C)c1.CS(=O)(=O)[O-]
[II] c1ccccc1 [benzene] + CCn1cc[n+](C)c1.CS(=O)(=O)[O-]
*Q* Response body: label of entry with the larger activity coefficient; valid values I , II . Indicate your choice by writing its label.
*A* II
(II: 318, I: 10.9)

----------
- experimentSummary: activity coefficient (dimensionless); of the first substance listed, at infinite dilution; xn = mol fraction of the nth substance listed
- assayConditions: 308.15 K; 101 kPa; Liquid; Chromatography; x1 = 0
measuredProperty: activity coefficient

See these solved cases before continuing.
C=Cc1ccccc1 [styrene] + CCn1cc[n+](C)c1.CS(=O)(=O)[O-]
5.68
CCOCC [diethyl ether] + CCn1cc[n+](C)c1.CS(=O)(=O)[O-]
19.2

[P] c1ccccc1 [benzene] + CCn1cc[n+](C)c1.CS(=O)(=O)[O-]
[Q] C=CCCCCC [1-heptene] + CCn1cc[n+](C)c1.CS(=O)(=O)[O-]
[R] CCCCCCCC [octane] + CCn1cc[n+](C)c1.CS(=O)(=O)[O-]
[S] CCO [ethanol] + CCn1cc[n+](C)c1.CS(=O)(=O)[O-]
[T] CCCC(C)=O [pentan-2-one] + CCn1cc[n+](C)c1.CS(=O)(=O)[O-]
*Q* // smallest activity coefficient at index 0, largest at the end Please respond with the labels ordered as the question requires.
*A* S, T, Q, P, R

----------
- experimentSummary: activity coefficient (dimensionless); of the first substance listed, at infinite dilution; xn = mol fraction of the nth substance listed
- assayConditions: 338.15 K; 101 kPa; Liquid; Chromatography; x1 = 0
measuredProperty: activity coefficient

See these solved cases before continuing.
CC(C)=O [acetone] + CCn1cc[n+](C)c1.CS(=O)(=O)[O-]
338
CCC[N+](=O)[O-] [1-nitropropane] + CCn1cc[n+](C)c1.CS(=O)(=O)[O-]
2.38
C1CCCCCC1 [cycloheptane] + CCn1cc[n+](C)c1.CS(=O)(=O)[O-]
79.9
Cc1cccc(C)c1 [1,3-dimethylbenzene] + CCn1cc[n+](C)c1.CS(=O)(=O)[O-]
18.1
Cc1ccc(C)cc1 [1,4-dimethylbenzene] + CCn1cc[n+](C)c1.CS(=O)(=O)[O-]
18.8
CCCOCCC [dipropyl ether] + CCn1cc[n+](C)c1.CS(=O)(=O)[O-]
62.8

[I] c1ccsc1 [thiophene] + CCn1cc[n+](C)c1.CS(=O)(=O)[O-]
[II] C#CCCCCCC [1-octyne] + CCn1cc[n+](C)c1.CS(=O)(=O)[O-]
*Q* Response body: label of entry with the larger activity coefficient; valid values I , II . Indicate your choice by writing its label.
*A* II
(II: 25.3, I: 2)

[1] CC(C)OC(C)C [diisopropyl ether] + CCn1cc[n+](C)c1.CS(=O)(=O)[O-]
[2] C=CCCCCC [1-heptene] + CCn1cc[n+](C)c1.CS(=O)(=O)[O-]
*Q* Response body: label of entry with the larger activity coefficient; valid values 1 , 2 . Indicate your choice by writing its label.
*A* 2
(2: 112, 1: 64.8)
